- SYSTEM_NAME: human FPR1 (Homo sapiens (Human), UniProt P21462)
- Sequence (P21462 whole entry): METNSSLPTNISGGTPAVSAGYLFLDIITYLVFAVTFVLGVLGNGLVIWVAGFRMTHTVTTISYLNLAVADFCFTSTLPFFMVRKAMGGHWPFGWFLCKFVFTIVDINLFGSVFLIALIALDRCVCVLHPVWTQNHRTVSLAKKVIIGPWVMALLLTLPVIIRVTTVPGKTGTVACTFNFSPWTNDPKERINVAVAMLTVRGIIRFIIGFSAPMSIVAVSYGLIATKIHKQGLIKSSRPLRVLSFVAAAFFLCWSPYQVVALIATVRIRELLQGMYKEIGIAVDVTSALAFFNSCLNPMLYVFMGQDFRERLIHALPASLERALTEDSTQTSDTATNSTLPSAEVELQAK
- PROTOCOL_NOTES: FPR1 cyclic adenosine monophosphate (cAMP) assay
- TEST_CONTEXT: CHO cells overexpressing human FPR1; forskolin 10 µM; inhibition of cAMP production; read-out: hFPR1 cAMP EC50
Note: every record was labeled by where its EC50 sits among LOW (below 0.01 µM), MID (0.01 µM to below 0.6 µM), HIGH (0.6 µM or more)

Some solved cases for reference:
>  <COMPOUND>
COc1cc(F)c([C@@H]2CN(c3c(C)ccn(CC4CCOCC4)c3=O)C(=O)[C@H]2NC(=O)c2ccc(OC(F)F)cc2)c(F)c1

>  <CATEGORY_LABEL>
LOW

$$$$
>  <COMPOUND>
COc1cc(F)c([C@@H]2CN(c3nccc(NCC(C)O)c3C(F)(F)F)C(=O)[C@H]2NC(=O)c2ccc(OC(F)F)cc2)c(F)c1 (stereo partly shown) [Example 234]

>  <CATEGORY_LABEL>
HIGH

$$$$
>  <COMPOUND>
COc1cc(F)c([C@@H]2CN(c3c(C)ccn([C@H]4COC[C@@H]4O)c3=O)C(=O)[C@H]2NC(=O)c2ccc(Cl)cc2)c(F)c1 [Example 623]

>  <CATEGORY_LABEL>
MID

$$$$
>  <COMPOUND>
CCn1cc(F)cc(N2C[C@@H](c3c(F)cc(OC)cc3F)[C@H](NC(=O)c3ccc(OC(F)F)cc3)C2=O)c1=O

>  <CATEGORY_LABEL>
MID

$$$$

Hi there! Could you help me figure out the category for COCC(C(=O)N(C)C)n1cccc(N2C[C@@H](c3c(F)cc(OC)cc3F)[C@H](NC(=O)c3ccc(OC(F)(F)F)cc3)C2=O)c1=O (stereo partly shown) [Example 283] please?
MID

Bin this entry: CC(O)Cn1cccc(N2C[C@@H](c3ccc(Cl)cc3)[C@H](NC(=O)c3ccc(OC(F)(F)F)cc3)C2=O)c1=O (stereo partly shown)
LOW

Which EC50 category applies to `COc1cc(F)c([C@H]2[C@H](NC(=O)c3ccc(OC(F)F)cc3)C(=O)N(c3cccc(N4CCOCC4)n3)[C@H]2C)c(F)c1` here?
MID

###

- SYSTEM_NAME: human FPR2 (Homo sapiens (Human), UniProt P25090)
- Sequence (P25090 whole entry): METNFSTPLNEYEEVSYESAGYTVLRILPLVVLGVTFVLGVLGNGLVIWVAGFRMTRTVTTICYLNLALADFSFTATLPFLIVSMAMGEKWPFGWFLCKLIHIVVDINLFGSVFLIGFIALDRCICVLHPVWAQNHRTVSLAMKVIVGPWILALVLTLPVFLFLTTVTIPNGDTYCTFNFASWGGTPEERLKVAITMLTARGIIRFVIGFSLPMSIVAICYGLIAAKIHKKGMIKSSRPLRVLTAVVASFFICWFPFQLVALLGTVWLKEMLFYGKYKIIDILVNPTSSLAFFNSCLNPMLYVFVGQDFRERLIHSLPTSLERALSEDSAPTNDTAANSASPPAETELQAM
- PROTOCOL_NOTES: FPR2 cyclic adenosine monophosphate (cAMP) assay
- Type: cell-based
- TEST_CONTEXT: CHO cells overexpressing human FPR2; forskolin 5 µM; inhibition of cAMP production; read-out: hFPR2 cAMP2 EC50
Label 1 when EC50 is strictly below 7 nM; at or above that, label -1.

Determine if `O=C(N[C@@H]1C(=O)N(c2cccn(CCO)c2=O)C[C@H]1c1ccc(Cl)cc1)c1ccc(OC(F)F)cc1` shows EC50 strictly lower than 7 nM.
1

###

- SYSTEM_NAME: human FPR1 (Homo sapiens (Human), UniProt P21462)
- PROTOCOL_NOTES: FPR1 cyclic adenosine monophosphate (cAMP) assay
- TEST_CONTEXT: CHO cells overexpressing human FPR1; forskolin 10 µM; inhibition of cAMP production; read-out: hFPR1 cAMP EC50
PROPERTY_LABEL: EC50
Note: a bare number is incomplete; add the unit.

>  <COMPOUND>
COCCn1cnc(C)c(N2C[C@@H](c3c(F)cc(OC)cc3F)[C@H](NC(=O)c3ccc(Cl)cc3)C2=O)c1=O [Example 521]

>  <PROPERTY_LABEL>
EC50

>  <RESULT>
330 nM

$$$$
>  <COMPOUND>
COc1cc(F)c([C@H]2[C@H](NC(=O)c3ccc(OC(F)F)cc3)C(=O)N(c3cccc(N4CC[C@@H](O)C4)n3)[C@H]2C)c(F)c1 [Example 561]

>  <PROPERTY_LABEL>
EC50

>  <RESULT>
170 nM

$$$$
>  <COMPOUND>
COc1cc(F)c([C@@H]2CN(c3nccc(NC4CC4)c3C(F)(F)F)C(=O)[C@H]2NC(=O)c2ccc(Cl)cc2)c(F)c1 [Example 163]

>  <PROPERTY_LABEL>
EC50

>  <RESULT>
1200 nM

$$$$

Which EC50 reading was recorded for the compound COc1cc(F)c([C@@H]2CN(c3nccc(N4CCN(S(C)(=O)=O)CC4)c3C(F)(F)F)C(=O)[C@H]2NC(=O)c2ccc(OC(F)F)cc2)c(F)c1 [Example 282] ?
700 nM

Which measured EC50 value corresponds to COc1cc(F)c([C@@H]2CN(c3c(C)ccn(CC(C)O)c3=O)C(=O)[C@H]2NC(=O)c2ccc(OC(F)(F)F)cc2)c(F)c1 (stereo partly shown) [Example 361] ?
3 nM

Entry under review: COc1ccc([C@@H]2CN(c3cccn(CC(O)C(F)(F)F)c3=O)C(=O)[C@H]2NC(=O)c2ccc(OC(F)(F)F)cc2)cc1 (stereo partly shown) [Example 354] . Reported EC50?
7 nM

Bench note: what EC50 did O=C(N[C@@H]1C(=O)N(c2cccn(CCC(F)(F)F)c2=O)C[C@H]1c1ccc(Cl)cc1)c1ccc(OC(F)F)cc1 [Example 72] show?
5.7 nM

Which EC50 value belongs to COc1cc(F)c([C@@H]2CN(c3c(C)ccn(CC(O)C(F)(F)F)c3=O)C(=O)[C@H]2NC(=O)c2ccc(OC(F)F)cc2)c(F)c1 (stereo partly shown) [Example 294] ?
9.1 nM

###

- SYSTEM_NAME: human FPR1 (Homo sapiens (Human))
- PROTOCOL_NOTES: FPR1 cyclic adenosine monophosphate (cAMP) assay
- TEST_CONTEXT: CHO cells overexpressing human FPR1; forskolin 10 µM; inhibition of cAMP production; read-out: hFPR1 cAMP EC50
PROPERTY_LABEL: pEC50
Entry type: numeric. Quantity: pEC50, the -log10 of concentration in molar units.

Past entries and their recorded results:
>  <MOLECULE>
COCCn1ccc(C)c(N2C[C@@H](c3c(F)cc(OC)cc3F)[C@H](NC(=O)c3ccc(OC(F)(F)F)cc3)C2=O)c1=O

>  <pEC50>
9.15

$$$$
>  <MOLECULE>
COc1cc(F)c([C@@H]2CN(c3ncccc3C(F)(F)F)C(=O)[C@H]2NC(=O)c2ccc(Cl)nc2)c(F)c1

>  <pEC50>
5.70

$$$$
>  <MOLECULE>
COc1cc(C2CCN(C)CC2)nc(N2C(=O)[C@@H](NC(=O)c3ccc(OC(F)F)cc3)[C@H](c3c(F)cc(OC)cc3F)[C@@H]2C)c1

>  <pEC50>
5.70

$$$$
>  <MOLECULE>
O=C(N[C@@H]1C(=O)N(c2cccn(CCO)c2=O)C[C@H]1c1ccc(Cl)cc1)c1ccc(OC(F)F)cc1

>  <pEC50>
7.70

$$$$
>  <MOLECULE>
COc1ccc([C@@H]2CN(c3c(C)ccn(CCC(F)(F)F)c3=O)C(=O)[C@H]2NC(=O)c2ccc(Cl)cc2)cc1 [Example 594]

>  <pEC50>
8.85

$$$$

Could you tell me which pEC50 is on file for `COc1cc(F)c([C@@H]2CN(c3c(C)ccn(CC(=O)N4CCOCC4)c3=O)C(=O)[C@H]2NC(=O)c2ccc(Cl)cc2)c(F)c1` ?
6.49

Quick one: pEC50 of COCCn1ncc(C)c(N2C[C@@H](c3c(F)cc(OC)cc3F)[C@H](NC(=O)c3ccc(OC(F)F)cc3)C2=O)c1=O [Example 472] ?
8.77

Param item = COCCn1cccc(N2C[C@@H](c3c(F)cc(OC)cc3F)[C@H](NC(=O)c3ccc(OC(F)(F)F)cc3)C2=O)c1=O [Example 37] ; retrieve measured pEC50.
7.80

Suppose we examine the molecule COCCN1CCCC(N2C[C@@H](c3c(F)cc(OC)cc3F)[C@H](NC(=O)c3ccc(OC(F)(F)F)cc3)C2=O)C1=O (some centres unmarked) ; what pEC50 value has been reported?
6.38

Would you kindly share the measured pEC50 for COc1cc(F)c([C@@H]2CN(c3nc(N4CCC(O)C4=O)ccc3F)C(=O)[C@H]2NC(=O)c2ccc(OC(F)(F)F)cc2)c(F)c1 (some centres unmarked) ?
7.46

###

- SYSTEM_NAME: human FPR2 (Homo sapiens (Human))
- PROTOCOL_NOTES: FPR2 cyclic adenosine monophosphate (cAMP) assay
- TEST_CONTEXT: CHO cells overexpressing human FPR2; forskolin 5 µM; inhibition of cAMP production; read-out: hFPR2 cAMP2 EC50
PROPERTY_LABEL: log10(EC50) (log10 of the value in nM)
Form field - Quantity: EC50; Unit: nM; Scale: log10

>  <MOLECULE>
COc1ccc([C@@H]2CN(c3c(C)ccn(C4CCC4)c3=O)C(=O)[C@H]2NC(=O)c2ccc(OC(F)(F)F)cc2)cc1

>  <SYSTEM_NAME>
human FPR2 (Homo sapiens (Human))

>  <log10(EC50)>
0.26

$$$$
>  <MOLECULE>
COc1cc(F)c([C@@H]2CN(c3cncnc3O)C(=O)[C@H]2NC(=O)c2ccc(OC(F)F)cc2)c(F)c1

>  <SYSTEM_NAME>
human FPR2 (Homo sapiens (Human))

>  <log10(EC50)>
1.99

$$$$
>  <MOLECULE>
COc1cc(F)c([C@H]2[C@H](NC(=O)c3ccc(Cl)cc3)C(=O)N(c3nccn(CC(F)F)c3=O)[C@H]2C)c(F)c1

>  <SYSTEM_NAME>
human FPR2 (Homo sapiens (Human))

>  <log10(EC50)>
-0.10

$$$$

# query: log10(EC50) of entry `COc1cc(F)c([C@@H]2CN(c3cccn(CCN4CCOCC4)c3=O)C(=O)[C@H]2NC(=O)c2ccc(OC(F)(F)F)cc2)c(F)c1`
0.91

Find the recorded log10(EC50) belonging to COc1cc(F)c([C@@H]2CN(c3cccn(C4CCOC4)c3=O)C(=O)[C@H]2NC(=O)c2ccc(OC(F)(F)F)cc2)c(F)c1 (stereo partly shown) and report it.
0.95

Given `COc1cc(F)c([C@H]2[C@H](NC(=O)c3ccc(OC(F)F)cc3)C(=O)N(c3cccn(CCO)c3=O)[C@H]2C)c(F)c1` , state its recorded log10(EC50).
0.62

Entry COc1cc(F)c([C@@H]2CN(c3c(C)ccn(C4COC4)c3=O)C(=O)[C@H]2NC(=O)c2ccc(OC(F)(F)F)cc2)c(F)c1 [Example 463] has what log10(EC50)?
0.59

// lookup log10(EC50) for COc1cc(F)c([C@@H]2CN(c3c(C)ccn(C4CCN(C)C4)c3=O)C(=O)[C@H]2NC(=O)c2ccc(OC(F)F)cc2)c(F)c1 (stereo partly shown) [Example 507]
0.36

Please look up its log10(EC50): `COc1cc(F)c([C@@H]2CN(c3c(C)ccn([C@H]4COC[C@@H]4O)c3=O)C(=O)[C@H]2NC(=O)c2ccc(OC(F)F)cc2)c(F)c1`
0.18

What does the record list as log10(EC50) for `COCCn1cccc(N2C[C@@H](c3ccc(OC)cc3F)[C@H](NC(=O)c3ccc(OC(F)F)cc3)C2=O)c1=O` ?
0.34

Fill in the blank: the reported log10(EC50) of COc1cc(F)c([C@@H]2CN(c3c(C)ccn(C4COC4)c3=O)C(=O)[C@H]2NC(=O)c2ccc(OC(F)(F)F)cc2)c(F)c1 [Example 637] is ____.
0.82

Please look up its log10(EC50): COCC(C(=O)N(C)C)n1cccc(N2C[C@@H](c3c(F)cc(OC)cc3F)[C@H](NC(=O)c3ccc(OC(F)(F)F)cc3)C2=O)c1=O (stereo partly shown) [Example 134]
0.54

Return reported log10(EC50); argument: `COCCn1cccc(N2C[C@@H](c3ccc(OC)cc3)[C@H](NC(=O)c3ccc(OC(F)F)cc3)C2=O)c1=O`
0.90
